This listing pairs molecules with measured melting point.

Solved entries (count: 6):
* NS(=O)(=O)c1cc(C(=O)O)cc(NCc2ccccc2)c1S(=O)c1ccccc1 (centres undefined) | 234 °C
* Cc1cccc(C)c1N1C(=O)c2ccc(C(=O)O)cc2C1=O | 210 to 213 °C
* O=C1CC(C(=O)OCc2ccccc2)C(=O)C(Cc2ccccc2)N1 (centres undefined) | 119 to 120 °C
* CN(C)Cc1ccc2oc(-c3ccc(O)cc3)cc(=O)c2c1 | 99 to 102 °C
* CCCCn1c(=O)c(C(=O)O)c(-c2ccc(Br)cc2)c2cccnc21 | 158 to 160 °C
* Cc1nc2cc(-c3ccccc3C#N)ccc2[nH]1 | 205 to 208 °C

Input `CCC(C#N)=C1CCN(c2ccc(N3C[C@H](CNC(=O)C(Cl)(Cl)Cl)OC3=O)cc2F)CC1` . Output melting point: 150 to 152 °C

Input CC(C)(C)c1ccc2oc(C(O)COc3ccc(C(=O)O)cc3)cc2c1 (centres undefined) . Output melting point: 175 to 177 °C

Input `CC(C)c1cc(-c2c3ccccc3c(Br)c3sc4ccccc4c23)cc(C(C)C)c1OCC(=O)O` . Output melting point: 220 to 221 °C

* * *

readoutLabel: melting point

Solved entries (count: 4):
- CCc1ccc2ncc(-c3nnn[nH]3)c(=O)n2c1: 289 to 290 °C
- O=S1(=O)N=C2CCCN2c2ccc(O)cc21: > 300 °C
- CC(C)[C@H](NC(=O)CC[C@H](C)CNC(=O)COc1ccccc1)[C@@H](O)c1c(-c2ccccc2)c1=O: 74 to 84 °C
- Nc1cccc(-c2cc(NC(=O)c3cccs3)nc(-c3ccccc3O)c2)c1: 161 to 162 °C

Input `CCCCc1cnc(-c2ccc(N)cc2)nc1` . Output melting point: 154 to 156 °C

Input `CS(=O)(=O)Nc1ccc(Nc2nc(NC3CCCC3)c3nc[nH]c3n2)cc1` . Output melting point: 261 to 265 °C

Input `O=C(O)c1cn(-c2ccc(O)cc2)c2c(F)c(F)c(F)cc2c1=O` . Output melting point: > 300 °C

Input `Cc1cc(Cl)ccc1N=CN(C)SSN(C)C=Nc1ccc(Cl)cc1C` . Output melting point: 56 to 57 °C

Input `CC1(C)CC(SCc2c(C(F)(F)F)n[nH]c2Cl)=NO1` . Output melting point: 120 to 122 °C

Input `COc1cc(-n2nc(C(F)(F)F)cc2-c2ccc(S(C)(=O)=O)cc2)ccc1Cl` . Output melting point: 157 to 158 °C

Input COc1cc2c(cc1OC)CC(Nc1ccc(O)cc1)CC2 (stereo unspecified) . Output melting point: 150 to 152 °C

Input CC(C)OC(=O)C(C(=O)OC(C)C)=C1SC2C(S1)N(C(C)C)CCN2C(C)C (stereo unspecified) . Output melting point: 82 to 84 °C

Input `COC(=O)N=C1SCCN1Cc1ccc(Cl)nc1` . Output melting point: 128 to 130 °C

Input Fc1ccc(C(C(Br)c2ccccc2)C(F)(F)F)cc1 (stereo unspecified) . Output melting point: 144 to 146 °C

Input `CC(C)c1ccc(-c2cnc(-c3cccc(C(=O)O)c3)o2)cc1` . Output melting point: 150 to 153 °C

Input `C=C(OCCc1nc(C(C)C)c(Sc2cc(Cl)cc(Cl)c2)n1C)C12CC3CC(CC(C3)C1)C2` . Output melting point: 114 to 116 °C

Input `COCCCNC(=O)NC(=O)C(C#N)=NO` . Output melting point: 126 to 127 °C

Input `CCOc1cc2c(cc1OCC)CCCC(C(=O)N1CCN(C(=O)c3cc(OC)c(OC)c(OC)c3)CC1)=C2` . Output melting point: 183 to 185 °C

Input O=c1[nH]ccc2c1C(c1cccc(Cl)c1)N=C(c1ccccc1)N2 (stereo unspecified) . Output melting point: 172 to 173 °C

Input `O=c1c2cc(Cl)cc(Br)c2ncn1CCCN1CC=C(c2c[nH]c3ccccc23)CC1` . Output melting point: 192 °C

Input `COc1ccc(Cc2ncc(C(=O)O)c3cc(OC)c(OC)cc23)cc1OC` . Output melting point: 235 to 236 °C

* * *

readoutLabel: melting point

Solved entries (count: 5):
- CC(C)C(=O)N[C@@H](CS)C(=O)NCCSC(=O)C(C)C: 125 to 127 °C
- O=C(O)COc1ccc(Cl)cc1-c1ccc(C(=O)N2CCCC2)c(C(F)(F)F)c1: 197 to 198 °C
- O=S(=O)(c1cc(-c2ccncc2)sc1-c1ccncc1)N1CCCC1: 193 to 195 °C
- COc1cccc(CC(=O)O)c1OCCCc1ccc(OC(C)C)cc1Oc1ncc(C(F)(F)F)cc1Cl: 100 to 101 °C
- COC(=O)c1ccc(CO)nc1C1=NC(C)(C(C)C)C(=O)N1 (stereo not given): 115 to 118 °C

Input `C=CCOC1=C(O)[C@@H](CC/C=C\CCCCCCCCCCCCCC)OC1=O` . Output melting point: 49 to 53 °C

Input `COc1ccc2c(c1)N(C)C(=O)C2(C)C` . Output melting point: 67 to 69 °C

Input `CCCc1cc(C)c2oc(Cc3ccc(OC)cc3)c(C)c2c1O` . Output melting point: 102 to 104 °C

Input `COC(=O)c1cccc(NC(=O)C=C(c2ccc(Cl)cc2)c2ccc(Cl)cc2)c1` . Output melting point: 155 to 159 °C

Input `O=C1NCCc2c(OCc3ccccc3)cccc21` . Output melting point: 171 to 173 °C

* * *

readoutLabel: melting point

• CC1=C(O)C(=O)C(C)(CO)O1 (stereo not given) = 124 to 125 °C
• CN1C(=O)NC(=O)C1=Cc1cc(Br)c(O)c(Br)c1 = 271 to 277 °C
• CC(=O)N1CCN(CCc2ccc(-c3cccc(N)n3)cc2)CC1 = 201 to 203 °C
• O=c1c2c(CCc3cccc([N+](=O)[O-])c3)n[nH]c2c2cccnc2n1-c1ccccc1 = 245 to 247 °C

Then there is this molecule:
Input `COC(=O)c1cnn(C)c1C(=O)Nc1ccn2nc(-c3ccccc3)nc2c1` . Output melting point: 243 to 247 °C

* * *

readoutLabel: melting point (°C)

A. CCN1CC(c2ccccc2)=C(OCCN2CCCCC2)C1=O
B. CC(C)(C)OC(=O)N1[C@@H](c2ccccc2)[C@H](C(=O)OC(=O)[C@@H]2OC(C)(C)N(C(=O)OC(C)(C)C)[C@H]2c2ccccc2)OC1(C)C
Form field 'greater melting point' accepts A or B ; which applies? Answer by quoting the chosen item's label.
A

* * *

readoutLabel: melting point

Solved entries (count: 3):
* c1c(C(CN2CCNCC2)N2CCNCC2)nc(N2CCCC2)nc1N1CCCC1 (stereo not given) | 148 to 149 °C
* CCCCNC(=O)Oc1ccc(Oc2ccccc2)cc1Br | 57 to 60 °C
* COc1ccccc1[C@H](c1cccc2ccccc12)[C@@](C)(C#N)C(=O)N1CC=C(c2ccc(Cl)cc2)CC1 | 118 to 122 °C

Input `COc1cccc2c(C#Cc3ccccc3)c3cccc(OC)c3c(C#Cc3ccccc3)c12` . Output melting point: 178 to 180 °C

Input CC(C(=S)c1cccc(NC=O)n1)S(C)=O (stereo not given) . Output melting point: 130 to 132 °C

Input `Cc1cc(N)c(NC(=O)OC(C)(C)C)cc1C(F)(F)F` . Output melting point: 144 °C

Input `Cc1cc(-c2nnc3c4ccccc4c(OCc4ncn(C(C)C)n4)nn23)no1` . Output melting point: 179 to 181 °C

Input `CCCc1nc2c(N)nc3cccnc3c2n1CC1(O)CCCC1` . Output melting point: 184 to 186 °C

Input COc1cc(S(N)(=O)=O)cc(C(=O)NC2CCN(CC3CCCCC3)C2)c1OC (stereo not given) . Output melting point: 167 °C

Input `CC(=O)CC(=O)Nc1c(C(=O)c2ccccc2)[nH]c2cc(Cl)ccc12` . Output melting point: 170 to 173 °C

* * *

This listing pairs molecules with measured melting point.

Solved entries (count: 3):
- CC[C@H](COC)n1cc(Br)nc(N2CCc3cc(OC)cc(Br)c32)c1=O: 122 to 123 °C
- CCOC(=O)C(=CNc1ncnc2ccc(N3CCN(C)CC3)cc12)C(=O)OCC: 154 to 159 °C
- Nc1nc2ccc(NC(=O)c3ccccc3)cc2s1: 213 to 215 °C

Then there is this molecule:
Input `CC1(C)CCC(C(=O)COS(=O)(=O)c2ccccc2)CC1` . Output melting point: 34.5 to 35 °C

* * *

readoutLabel: melting point (°C)

* CN1CCc2cc(NC(=O)/C=C/c3ccc(C(C)(C)C)cc3)ccc21 | 194
* C#CCOC(=O)C1=C(C)N(C)C(C)=C(C(=O)OCC#C)C1c1cccc(C(F)(F)F)c1 | 163

The measurements presented in this section are drawn from a melting point compilation (Tetko et al.; mined from patent text by program, amines drawn as free bases though some values may be those of a salt).
